test system: relapsed AML cells; assay: Drug sensitivity assay, 1,536-well, 3-day culture with individual approved drugs at 10 μM, viability by alamarBlue; assay type: cell-based, human; conditions: number of relapsed AML cases out of 18 tested with >70% cell death; 10 μM, 3-day culture
Counter-ions that a name gives are not always drawn.
# maps each entry to its #Cases >70% cell death
QUANTITY KIND: #Cases >70% cell death

1. C[C@@H]1CCN(C(=O)CC#N)C[C@@H]1N(C)c1ncnc2[nH]ccc12 [TOFACETINIB]: 4
2. C=CC(=O)Nc1cc(Nc2nccc(-c3cn(C)c4ccccc34)n2)c(OC)cc1N(C)CCN(C)C [OSIMERTINIB (tagrisso), OSIMERTINIB]: 1
3. C1CCC(C(CC2CCCCN2)C2CCCCC2)CC1 (stereo not shown) [PERHEXILINE MALEATE]: 13
4. COc1ccc2cc3[n+](cc2c1OC)CCc1cc2c(cc1-3)OCO2 [BERBERINE CHLORIDE]: 1

###

system: relapsed AML cells; assay: Drug sensitivity assay, 1,536-well, 3-day culture with individual approved drugs at 10 μM, viability by alamarBlue; type: cell-based, human; conditions: number of relapsed AML cases out of 18 tested with >70% cell death; 10 μM, 3-day culture
Below: a set of entries, each annotated with reported #Cases >70% cell death.
QUANTITY KIND: #Cases >70% cell death

1) CCN(CC)CCOCCOC(=O)C(CC)(CC)c1ccccc1.O=C(O)CC(O)(CC(=O)O)C(=O)O [OXELAIDIN CITRATE]: 2
2) CC(=O)OCC(=O)[C@@]12OC(C)(C)O[C@@H]1C[C@H]1[C@@H]3C[C@H](F)C4=CC(=O)C=C[C@]4(C)[C@@]3(F)[C@@H](O)C[C@@]12C [FLUOCINONIDE]: 1
3) Cc1nc2sccn2c(=O)c1CCN1CCC(=C(c2ccc(F)cc2)c2ccc(F)cc2)CC1 [RITANSERIN]: 1
4) COc1cccc(-c2cc(F)ccc2[C@H]2Cc3nc(N)nc(C)c3C(=O)N2)n1 [HSP-990]: 17
5) CC(C)C[C@H](NC(=O)[C@H](CCc1ccccc1)NC(=O)CN1CCOCC1)C(=O)N[C@@H](Cc1ccccc1)C(=O)N[C@@H](CC(C)C)C(=O)[C@@]1(C)CO1 [CARFILZOMIB]: 18
6) CC(C)N1CCN(c2ccc(OCC3COC(Cn4cncn4)(c4ccc(Cl)cc4Cl)O3)cc2)CC1 (centres unmarked) [TERCONAZOLE]: 7
7) CCCCOc1ccc(CC(=O)NO)cc1 [BUFEXAMAC]: 9
8) O=S(=O)([O-])CCSSCCS(=O)(=O)[O-].[Na+].[Na+] [DIMESNA]: 1

###

Recorded #Cases >70% cell death by entry
test system: relapsed AML cells; test: Drug sensitivity assay, 1,536-well, 3-day culture with individual approved drugs at 10 μM, viability by alamarBlue; format: cell-based, human; conditions: number of relapsed AML cases out of 18 tested with >70% cell death; 10 μM, 3-day culture
QUANTITY KIND: #Cases >70% cell death

1. COCCOC(=O)C1=C(C)NC(C)=C(C(=O)OC/C=C/c2ccccc2)C1c1cccc([N+](=O)[O-])c1 (stereo not shown) [CILNIDIPINE]: 1
2. Cc1nc(Nc2ncc(C(=O)Nc3c(C)cccc3Cl)s2)cc(N2CCN(CCO)CC2)n1 [DASATINIB]: 6
3. CO[C@H]1C(=O)[C@]2(C)[C@@H](OC)C[C@H]3OC[C@@]3(OC(C)=O)[C@H]2[C@H](OC(=O)c2ccccc2)[C@]2(O)C[C@H](OC(=O)[C@H](O)[C@@H](NC(=O)OC(C)(C)C)c3ccccc3)C(C)=C1C2(C)C [CABAZITAXEL]: 5
4. CNC[C@H](O)[C@@H](O)[C@H](O)[C@H](O)CO [MEGLUMINE]: 1
5. Nc1nc2nc[nH]c2c(=S)[nH]1 [THIOGUANINE]: 14
6. O=C(Nc1ccccc1Br)N[C@@H]1CCN(c2ccc(C(F)(F)F)cn2)C1 [SB-705498]: 1
7. CCOC(=O)C1=C(C)NC(C)=C(C(=O)OCC)C1c1ccccc1/C=C/C(=O)OC(C)(C)C [LACIDIPINE]: 2
